system: CCRIS mutagenicity, Ames/micronucleus/aberration tests; assay: CCRIS mutagenicity studies; conditions: Test System: AMES SALMONELLA TYPHIMURIUM; Strain/Indicator: TA1538; Metabolic Activation: RAT, LIVER, S-9, AROCLOR 1254; Method: STANDARD PLATE
Calls of active or inactive are those of the source. No rule for the calls is given here.

| Compound | mutagenic call |
| --- | --- |
| CC(F)(F)F | inactive; negative |
| Nc1ccccc1N | active; positive |
| C[Si](C)(C)O[Si](C)(C)O[Si](C)(C)C | inactive; negative |
| FC(F)(F)c1ccc(Cl)cc1 | inactive; negative |
| CC(C)Nc1nc(Cl)nc(NC(C)C)n1 | inactive; negative |
| CC(=O)Nc1ccc([N+](=O)[O-])cc1 | inactive; negative |
| O=S1(=O)OC(c2cc(Br)c(O)c(Br)c2)(c2cc(Br)c(O)c(Br)c2)c2ccccc21 | inactive; negative |
| Oc1ccc2c(c1)OCO2 | inactive; negative |
| Cc1cc(-c2ccc(N=Nc3c(N)c(C)cc(S(=O)(=O)O)c3N)c(C)c2)ccc1N=Nc1ccc(O)c(C(=O)O)c1 | active; positive |
| CN(C)c1ccc(C(=C2C=CC(=[N+](C)C)C=C2)c2c(O)c(S(=O)(=O)[O-])cc3cc(S(=O)(=O)O)ccc23)cc1 | inactive; negative |
| O=C(O)/C=C/c1ccccc1 | inactive; negative |
| O=[Si]=O | inactive; negative |
| CN(C)CCN(Cc1cccs1)c1ccccn1 | inactive; negative |
| COc1ccc([C@@H]2CC(=O)c3c(O)cc(O[C@@H]4O[C@H](CO[C@@H]5O[C@@H](C)[C@H](O)[C@@H](O)[C@H]5O)[C@@H](O)[C@H](O)[C@H]4O)cc3O2)cc1O | inactive; negative |
| Clc1nnc(Cl)c2ccccc12 | inactive; negative |
| CC(=O)c1ccc(S(=O)(=O)NC(=O)NC2CCCCC2)cc1 | inactive; negative |
| COC(=O)[C@H]1O[C@@H]1c1ccccc1 | inactive; negative |
| CCN1CCN(C(=O)N[C@@H](C(=O)N[C@@H]2C(=O)N3[C@@H]2SC(C)(C)[C@@H]3C(=O)O)c2ccccc2)C(=O)C1=O | inactive; negative |
| O=C(Nc1ccc2c(O)c(N=Nc3ccc(N=Nc4ccc(S(=O)(=O)O)cc4)cc3)c(S(=O)(=O)O)cc2c1)c1ccccc1 | inactive; negative |
| Cc1c(N)cc([N+](=O)[O-])c(N)c1C | active; positive |
| COc1cc(N=Nc2ccccc2)ccc1N=Nc1c(S(=O)(=O)O)cc2ccc(N)cc2c1O | active; positive |
| CCCCCC(O)CC(=O)CCC1CCC(O)C(OC)C1 (configuration not stated) | inactive; negative |
| O=C1N=NC(=O)C2C=CC=CC12 (configuration not stated) | inactive; negative |
| c1cnccn1 | inactive; negative |
| Cc1ccc2c(c1Nc1ccccc1)C(=O)c1ccccc1C2=O | inactive; negative |
| O=C1c2ccc(O)cc2C(=O)c2ccc(O)cc21 | inactive; negative |
| O=[N+]([O-])c1cc(C(F)(F)F)cc([N+](=O)[O-])c1Cl | inactive; negative |
| N=C1CCC(=N)c2c1c(O)c1ccccc1c2O | inactive; negative |
| Cc1c(C)c(N)c(C)c(C)c1N | inactive; negative |
| Nc1ccc2cc3ccc(N)cc3nc2c1 | active; positive |
| C/C=C/c1ccc(O)c(OC)c1 | inactive; negative |
| CCCCCCCC/C=C\CCCCCCCCN (tested in a mixture with another compound) | active; positive |
| C#C[C@]1(O)CC[C@H]2[C@@H]3CCc4cc(O)ccc4[C@H]3CC[C@@]21C | inactive; negative |
| C1=Cc2c(cc3ccc4cccc5ccc2c3c45)CC1 | active; positive |
| COc1cc(-c2ccc(N)c(OC)c2)ccc1N | active; positive |
| CC1(C)Cc2ncccc2-c2nc(N)sc21 | active; positive |
| CC(C)c1cc(N)cc([N+](=O)[O-])c1N | inactive; negative |
| CC[n+]1c2ccccc2nc2ccccc21 | inactive; negative |
| COc1ccc(-c2coc3cc(O)cc(O)c3c2=O)cc1 | inactive; negative |
| Cc1nnc(NS(=O)(=O)c2ccc(N)cc2)s1 | inactive; negative |
| CO/N=C(\C(=O)N[C@@H]1C(=O)N2C(C(=O)O)=C(CSC(=O)c3ccco3)CS[C@H]12)c1csc(N)n1 | inactive; negative |
| Nc1ncnc2c1ncn2[C@@H]1O[C@H](CO)[C@@H](O)[C@H]1O | inactive; negative |
| C=CC(=O)OCCCCOC(=O)C=C | inactive; negative |
| CC(=O)Nc1ccc2c(c1)Cc1ccccc1-2 | active; positive |
| CC(C)C[C@H]1C(=O)N2CCC[C@H]2[C@]2(O)O[C@](NC(=O)[C@@H]3C[C@@H]4c5cccc6[nH]cc(c56)C[C@H]4N(C)C3)(C(C)C)C(=O)N12 | inactive; negative |
| CCCCCC(=O)O[C@]1(C(C)=O)CC[C@H]2[C@@H]3CCC4=CC(=O)CC[C@@H]4[C@H]3CC[C@@]21C | inactive; negative |
| Cc1cc(N)c(C)cc1N | inactive; negative |

---

tested on: CCRIS mutagenicity, Ames/micronucleus/aberration tests; assay: CCRIS mutagenicity studies; conditions: Test System: AMES SALMONELLA TYPHIMURIUM; Strain/Indicator: TA97; Metabolic Activation: HAMSTER, LIVER, S-9, AROCLOR 1254 (10%); Method: PREINCUBATION
Calls of active or inactive are those of the source. How the calls were made is not given here.
Outcome codes: yes (1) for active, no (0) for inactive

| Compound | Class Label |
| --- | --- |
| Nc1cc(Cl)ccc1O | no (0) |
| Cc1ccc(N)cc1C | no (0) |
| Cc1ccc(N)c(N)c1 | no (0) |
| Nc1ccccc1N | yes (1) |
| c1ccc(CSCc2ccccc2)cc1 | no (0) |
| O=NN(CCO)CCO | yes (1) |
| ClC(Cl)(Cl)Cl | no (0) |
| CN(C)c1cccc(O)c1 | yes (1) |
| CC(=O)Nc1ccc(N)cc1 | no (0) |
| O=C(O)C1=NN(c2ccc(S(=O)(=O)O)cc2)C(=O)C1N=Nc1ccc(S(=O)(=O)O)cc1.[Al] (stereo unspecified) | no (0) |
| CCCCOP(=O)(OCCCC)Oc1ccccc1 | no (0) |

---

test system: CCRIS mutagenicity, Ames/micronucleus/aberration tests; assay: CCRIS mutagenicity studies; conditions: End Point: IN VITRO CHROMOSOMAL ABERRATIONS; Test System: CHL CELLS; Metabolic Activation: NONE
The source made the active and inactive calls. The rule behind the calls is not given here.
Outcome codes: t = active, f = inactive

| Molecule | Class Label |
| --- | --- |
| Nc1ccccc1N | t |
| CC(=O)Nc1cc(N(CCOC(C)=O)CCOC(C)=O)ccc1N=Nc1ccc([N+](=O)[O-])cc1Cl | f |
| CCOC(Cl)CCl (stereo not given) | t |
| O=C(O)CBr | t |
| CCN(CC)c1ccc(N=Nc2c(Cl)cc([N+](=O)[O-])cc2[N+](=O)[O-])c(NC(C)=O)c1 | f |

---

system: CCRIS mutagenicity, Ames/micronucleus/aberration tests; assay: CCRIS mutagenicity studies; details: Test System: AMES SALMONELLA TYPHIMURIUM; Strain/Indicator: TA1537; Metabolic Activation: NONE; Method: STANDARD PLATE
The source made the active and inactive calls. No rule for the calls is given here.
Quantity Kind: mutagenic call

| Molecule | Result |
| --- | --- |
| O=C1OC2(c3ccccc31)c1cc(I)c(O)c(I)c1Oc1c2cc(I)c(O)c1I | inactive; negative |
| C[C@H]1CCCC(=O)CCCCCc2cc(O)cc(O)c2C(=O)O1 | inactive; negative |
| CN(C)CCn1cc[n+](C)c1/C=N/O | inactive; negative |
| N#[N+]c1cccc2c1C(=O)c1ccccc1C2=O | active; positive |
| Cc1c2ccccc2c(C)c2c1ccc1ccccc12 | active; positive |
| N=C1CCC(=N)c2c1c(O)c1ccccc1c2O | active; positive |
| CCCCCC(=O)O[C@]1(C(C)=O)CC[C@H]2[C@@H]3CCC4=CC(=O)CC[C@@H]4[C@H]3CC[C@@]21C | inactive; negative |
| N#CSCSC#N | inactive; negative |
| O=Nc1c(-c2ccc(Cl)cc2)nc2sccn12 | active; positive |
| CC(=O)Nc1cc2c(cc1[N+](=O)[O-])[nH]c1ccccc12 | inactive; negative |
| O=c1[nH]c2ccccc2o1 | inactive; negative |
| O=[N+]([O-])c1ccc(-c2nc3n(c2[N+](=O)[O-])CCS3)cc1 | inactive; negative |
| CC(=O)Nc1ccc2c(c1)Cc1ccccc1-2 | inactive; negative |
| CO/N=C(\C(=O)N[C@@H]1C(=O)N2C(C(=O)O)=C(CSC(=O)c3ccco3)CS[C@H]12)c1csc(N)n1 | inactive; negative |
| O=C(O)/C=C/c1ccccc1 | inactive; negative |
| COC(=O)[C@H]1O[C@@H]1c1ccccc1 | inactive; negative |
| C/C=C/c1ccc(O)c(OC)c1 | inactive; negative |
| C[Si](C)(C)O[Si](C)(C)O[Si](C)(C)C | inactive; negative |
| CCCC(=O)C1c2cccc(O)c2C(=O)c2c(O)cccc21 | active; positive |
| Cc1ccc2nsc(N)c2c1 | inactive; negative |
| O=C1c2cc(S(=O)(=O)O)ccc2C(=O)c2c1cccc2[N+](=O)[O-] | active; positive |
| O=C1c2ccc(O)c(O)c2C(=O)c2c(O)ccc(O)c21 | active; positive |
| O=C(O)CCCc1c[nH]c2ccccc12 | inactive; negative |
| O=[N+]([O-])c1cc(C(F)(F)F)cc([N+](=O)[O-])c1Cl | inactive; negative |
| CCCCCCCC/C=C\CCCCCCCCN (tested in a mixture with another compound) | inactive; negative |
